Numbers sourced from PubChem BioAssay (NCI).

Record form. Attribute: growth. Fill in for each entry.
system: SN12C renal; assay: NCI-60 one-dose screen, 48 h (100 = growth as untreated, 0 = no growth, -100 = all killed); details: 10 µM unless noted
About 83,000 compounds went through this panel and 20% of them were active in at least one assay; those are over-represented in the sample as a whole. Active and inactive are the calls of the source. How the source made its calls: active means growth percent below 10; inactive means the rest.

Reference set (4 entries):
c1cc2c(c3c1CCNC3)OCO2: 100% (inactive)
COC1OC(CO)C(O)C(O)[CH]1[Hg][O]C(C)=O (stereo not given): 88.5% (inactive)
CC[C@H](C)[C@H](NC(=O)c1cccn1C)C(=O)N(C)[C@H](C[C@@H](OC(C)=O)c1nc(C(=O)N[C@@H](Cc2ccccc2)C[C@H](C)C(=O)OC)cs1)C(C)C: 24.2% (inactive)
COc1cc(/C=C/[N+](=O)[O-])c([N+](=O)[O-])cc1OC: 22% (inactive)

// below: growth requested for another molecule
Provide growth value for the following molecule: `Nc1nnnc2nc[nH]c12` 10.9% (inactive)

====

tested on: UO-31 renal; experiment: NCI-60 one-dose screen, 48 h (100 = growth as untreated, 0 = no growth, -100 = all killed); conditions: 10 µM unless noted
About 83,000 compounds went through this panel and 20% of them were active in at least one assay; those are over-represented in the sample as a whole.
READOUT_TYPE: growth (%)
Give bare numbers, in %.

Completed entries (count: 6):
Cc1ccccc1NC(=NCCCN1CC1)Nc1ccccc1C: 73.3
CC(=O)OC1CCC2C3CCC4=C/C(=N/OC(=O)c5ccc(N(CCCl)CCCl)cc5)CCC4(C)C3CC(C)C12 (stereo unspecified): -32
COc1cc2ncnc(Nc3ccc(F)c(Cl)c3)c2cc1OCC(=O)N1CCN(C)CC1: 55.9
CCOc1ccc(/C=C/[N+](=O)[O-])cc1: 71.1
CC(=O)O[C@H](C[C@H](C(C)C)N(C)C(=O)[C@@H](NC(=O)[C@H]1CCCCN1C)C(C)C)c1nc(C(=O)NC2CCC(C(=O)O)CC2)cs1 (stereo partly specified): 76.4
CC(=O)C(c1c(O)c2ccccc2oc1=O)c1cc(=O)oc2c1ccc1ccccc12 (stereo unspecified): 80.3

Record growth per entry; entries follow.
1. Clc1ccc(CO/N=C(\Cn2ccnc2)c2ccc(Cl)cc2Cl)c(Cl)c1
2. CN1C(=O)C23CC4(C56CC78SSC(CO)(C(=O)N7C5Nc5ccccc56)N(C)C8=O)c5ccccc5NC4N2C(=O)C1(CO)SS3 (stereo unspecified)
3. CC(=O)OC1CCC2(C)C(CCC3C2CC(=O)C2(C)C3CC(Sc3ccc(N(CCCl)CCCl)cc3)C2C(C)=O)C1 (stereo unspecified)
4. O=C(Nc1ccc(Br)cc1)c1cc(Br)cc(Br)c1O
5. CC(=O)O[C@H]1CC[C@@]2(C)C(=CC[C@H]3[C@@H]4C[C@@H](N5CC5)[C@H](C(C)=O)[C@@]4(C)CC[C@@H]32)C1

1: -3; 2: -100; 3: 77.6; 4: 4.99; 5: 104

====

system: 786-0 renal; assay: NCI-60 one-dose screen, 48 h; conditions: 10 µM unless noted
Compounds without any hit were thinned out: in the full panel of roughly 83,000, 20% have a hit. The source made the active and inactive calls. The calls were made as follows: active = growth percent below 10; inactive = the rest.
Use one of these outcomes when replying: active, inactive

Here are 5 molecules together with their reported answers.
COC(=O)[C@@H](C)C[C@H](Cc1ccccc1)NC(=O)c1csc([C@@H](C[C@H](C(C)C)N(C)C(=O)[C@@H](NC(=O)[C@H]2CCCCN2C)C2CC2)OC(C)=O)n1: inactive
ClCCN(CCCl)c1ccc(OCc2ccccc2)cc1: inactive
CC12CC(=O)C3(SC#N)C(CCC4=CC(=O)CCC43C)C1CCC2=O (configuration not stated): inactive
C/C(=C\c1ccn(-c2ccc(N)c(F)c2)n1)[C@@H]1C[C@@H]2O[C@]2(C)CCC[C@H](C)[C@H](O)[C@@H](C)C(=O)C(C)(C)[C@@H](O)CC(=O)O1: inactive
CN1C(=O)C(=Cc2cn(CCCCCCn3c4ccccc4c(=O)c4ccccc43)c3ccccc23)C(=O)N(C)C1=O: inactive

Please state the recorded outcome for this molecule: O=[N+]([O-])CC(c1ccccc1Cl)c1c(-c2ccccc2)[nH]c2ccccc12 (configuration not stated) inactive

For NC(=S)c1cn(C2OC(CO)C(O)C2O)c2ncnc(N)c12 (configuration not stated) , which call appears in the assay record? active

====

tested on: IGROV1 ovarian; test: NCI-60 one-dose screen, 48 h; settings: 10 µM unless noted
This is part of a sample that, as a whole, favours compounds with a hit. Of some 83,000 tested, about 20% had one in any assay. Calls of active or inactive are those of the source. Rule for the calls: active = growth percent below 10; inactive = the rest.
Tick one outcome: TRUE (active), FALSE (inactive)

CC1=C(CN)C2=C(C)C3(CC3)[C@@](C)(O)C(=O)C2=C1: FALSE
CC[C@H](C)[C@H](NC(=O)[C@H]1CCCCN1C)C(=O)N(C)[C@H](CCc1nc(C(=O)N[C@@H](Cc2ccccc2)C[C@H](C)C(=O)OC)cs1)C(C)C: FALSE
O=C1CNC(c2ccccc2)c2cc(Cl)ccc2N1 (centres undefined): FALSE
C=C1C(=O)O[C@H]2[C@H]1CC/C(COC(=O)C(=O)c1cn(Cc3ccccc3)c3ccccc13)=C\CC[C@@]1(C)O[C@@H]21: TRUE
CC(=O)O[C@H](C[C@H](C(C)C)N(C)C(=O)[C@@H](NC(=O)[C@H]1CCCCN1C)C(C)C)c1nc(C(=O)N[C@@H](Cc2ccccc2)C[C@H](C)C(=O)O)c(C(C)C)s1: FALSE

Lab log entry: NC1CC2CCCCC2CC1(O)c1ccccc1 (centres undefined) — outcome as called in the assay? FALSE

Hi, sorry to bother you, what did the test record for `COc1ccc(/C=C\c2cc(OC)c(OC)c(OC)c2)cc1NC(=O)/C=C/c1ccc(OC)c(OC)c1` ? FALSE

Could you kindly confirm the outcome this assay logged for `COc1ccc(/C=C/c2cc(OC)c(OC)c(OC)c2)cc1NC(=O)/C=C/c1ccc(F)cc1` ? FALSE

====

test system: HOP-62 NSCLC; experiment: NCI-60 one-dose screen, 48 h (100 = growth as untreated, 0 = no growth, -100 = all killed); conditions: 10 µM unless noted
About 83,000 compounds went through this panel and 20% of them were active in at least one assay; those are over-represented in the sample as a whole.
Give measured growth for each item. Keep answers brief.
One number for each entry, in %.

Can you give me growth for all of these, one by one?
1. C[C@]12CCc3sc(-c4cccc(F)c4)nc3C1=CC[C@@H]1[C@@H]2CC[C@]2(C)C(=O)CC[C@@H]12
2. CN(C)C(=O)Oc1ccccc1-c1ccccc1
3. CC[S][Hg][Cl]
4. CCOC(=O)c1c(C)n(Cc2ccccc2)c2cc(CN(C)C)c(O)cc12
5. O=C1NC(=O)C(=Cc2cccn2CCCCCn2c3ccccc3c(=O)c3ccccc32)C(=O)N1
6. Nc1ccc2c(c1)Cc1cc(Br)ccc1-2

1: 50.5; 2: 98.6; 3: 119; 4: 47.9; 5: 102; 6: 101

Give one value of growth per listed compound.
1. COc1ccc(/C=C\c2cc(OC)c(OC)c(OC)c2)c(NS(=O)(=O)c2ccc(F)cc2)c1O
2. O=C1C=C(N2C3C4CCC(C4)C32)C(=O)C=C1c1ccccc1 (centres undefined)

[71.3, 108]

====

Provide the recorded growth for the entries that follow.
test system: U251 CNS; experiment: NCI-60 one-dose screen, 48 h (100 = growth as untreated, 0 = no growth, -100 = all killed); details: 10 µM unless noted
This is part of a sample that, as a whole, favours compounds with a hit. Of some 83,000 tested, about 20% had one in any assay.
Answers are plain numbers, in %.

Below are worked cases with known answers.
COc1ccc(/C(C)=C(\c2ccc(OCCN3CCOCC3)cc2)c2ccc(OC(=O)Cc3ccccc3)cc2)cc1: 102
COc1ccc(S(=O)(=O)N(Cc2ccc3c(c2)C=CC(C)(C)O3)c2ccccc2)cc1OC: 89.1
COC(=O)[C@H](Cc1ccccc1)NC(=O)c1csc([C@@H](C[C@H](C(C)C)N(C)C(=O)[C@@H](NC(=O)[C@H]2CCCCN2C)C2CC2)OC(C)=O)n1: -5.23
O=C([O][Hg][CH2]C1COCC([CH2][Hg][O]C(=O)c2ccccc2)O1)c1ccccc1 (stereo not drawn): 58.9
O=C(CC1(O)C(=O)Nc2ccc(Cl)cc21)c1ccc(C(=O)NCC2CCC3(CC2)OOC2(CCCCC2)OO3)cc1 (stereo not drawn): -54.2
COC(=O)CCC1=C(C)c2cc3[n-]c(cc4nc(cc5[n-]c(cc1n2)c(CCC(=O)OC)c5C)C=C4C)cc3C.[Cd+2]: 61
ClCCN(CCCl)Cc1ccc(Nc2ccnc3cc(Cl)ccc23)cc1: 22.4

Here is another compound to look at.
Note down growth recorded for `COc1ccc(/C=C\c2cc(OC)c(OC)c(OC)c2)cc1OCC(=O)Nc1nc2ccc(OC(F)(F)F)cc2s1` 26
